Listing of entries alongside the reported phosphorylation enrichment.
system_tested: FGFR1 (UniProt P11362)
Sequence (P11362 whole entry, looked up): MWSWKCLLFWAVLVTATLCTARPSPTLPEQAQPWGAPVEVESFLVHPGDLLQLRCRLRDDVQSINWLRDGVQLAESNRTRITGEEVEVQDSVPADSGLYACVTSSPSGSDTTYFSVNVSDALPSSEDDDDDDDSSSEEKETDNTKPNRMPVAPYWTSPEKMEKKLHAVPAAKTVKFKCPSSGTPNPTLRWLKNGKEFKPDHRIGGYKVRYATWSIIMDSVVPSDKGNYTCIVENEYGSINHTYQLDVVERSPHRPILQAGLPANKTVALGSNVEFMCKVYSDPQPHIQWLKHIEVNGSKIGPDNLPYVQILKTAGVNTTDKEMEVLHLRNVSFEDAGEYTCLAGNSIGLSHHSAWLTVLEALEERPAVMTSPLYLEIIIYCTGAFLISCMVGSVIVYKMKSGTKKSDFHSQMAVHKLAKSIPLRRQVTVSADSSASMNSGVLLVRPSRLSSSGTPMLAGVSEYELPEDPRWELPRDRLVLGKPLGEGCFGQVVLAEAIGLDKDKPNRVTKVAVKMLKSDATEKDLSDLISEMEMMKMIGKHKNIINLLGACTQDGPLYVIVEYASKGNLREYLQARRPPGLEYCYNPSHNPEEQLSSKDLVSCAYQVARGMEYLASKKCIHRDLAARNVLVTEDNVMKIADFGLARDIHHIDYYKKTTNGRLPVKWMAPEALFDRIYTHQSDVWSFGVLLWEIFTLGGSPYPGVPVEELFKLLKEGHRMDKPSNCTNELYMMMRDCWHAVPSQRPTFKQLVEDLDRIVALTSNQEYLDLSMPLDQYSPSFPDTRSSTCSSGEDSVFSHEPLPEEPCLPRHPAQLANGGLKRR
method_notes: phosphorylation enrichment, bacterial display (enrichment ratio); higher = better substrate or ligand; peptides without Tyr show the background;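 also: 11-residue human phosphosite peptides and single-mutation variants displayed on the E. coli surface, counted by deep sequencing, each peptide's frequency after selection divided by its frequency in the unselected input library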;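 also: frequency after pTyr selection over input frequency; kinase dosed for 20-30% of maximal phosphorylation in three min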

chain: PADCRYYTFPQ [GAMT_Y222_A224T]
phosphorylation enrichment: 6
//
chain: FFRRHYPLTTL [TNS4_Y644]
phosphorylation enrichment: 0.426
//
chain: HAVVDYMRRQK [ATM_Y1915_L1910H]
phosphorylation enrichment: 0.799
//
chain: SSSPTYLDLPF [GLI3_Y168_P169L]
phosphorylation enrichment: 5.82
//
chain: VECRVYAEDPY [PCCA_Y401]
phosphorylation enrichment: 0.619
//
chain: WNDLDYMDSRR [GAA_Y407]
phosphorylation enrichment: 0.59
//
chain: GSTLSYFGLAA [P2RX7_Y343]
phosphorylation enrichment: 1.83
//
chain: PYSEPYADYGG [APBA1_Y187]
phosphorylation enrichment: 3.21
//
chain: GTATTYLCGVK [ALPL_Y117_A116T]
phosphorylation enrichment: 0.595
//
chain: SVTCTYSPAHN [TP53_Y126_L130H]
phosphorylation enrichment: 0.502
//
chain: VLALWYFFLTN [ZDHHC23_Y127_H132N_YF]
phosphorylation enrichment: 2.05
//
chain: AESPEYVHMYT [FAM111A_Y511]
phosphorylation enrichment: 1.92
//
chain: LQRCKYSHMEP [TEX45_Y434]
phosphorylation enrichment: 0.663
//
chain: CTTIHYNFTCN [TP53_Y234_M237T_YF]
phosphorylation enrichment: 0.496
//
chain: KMTGRYEMYAR [UPB1_Y362]
phosphorylation enrichment: 0.523
//
chain: EWKQKYEESQS [MYH6_Y1462]
phosphorylation enrichment: 0.499
//
chain: GPIIRYDLGGA [CYP11B1_Y81_F79I]
phosphorylation enrichment: 0.617
//
chain: KVPCHYDDPGK [FOXG1_Y246_R244C]
phosphorylation enrichment: 0.412
//
chain: LISVSYDDWDF [GRIN2A_Y281_YF]
phosphorylation enrichment: 1.08
//
chain: EEGNPSYSSAR [MCCC2_Y520_Y520S]
phosphorylation enrichment: 0.529
//
chain: FTRNYYVWAVL [CYBA_Y88_R90W]
phosphorylation enrichment: 6.92
//
chain: AEEEIYGIFGA [SRCtide_2014]
phosphorylation enrichment: 0.615
//
chain: VSNFNYFYHRE [KCNA1_Y413]
phosphorylation enrichment: 1.66
//
chain: NTQRPYYKGGG [TYROBP_Y111]
phosphorylation enrichment: 0.511
//
chain: KLKEKYEKDIA [HMGB1_Y155]
phosphorylation enrichment: 0.536
